# System: UACC-62
# experimentSummary: NCI tumour cell line growth inhibition, 48 h
Active and inactive are the calls of the source. No stated cut-off is given here; in the data, active = GI50 up to about 1.1 µM and inactive = higher.
Measured GI50 values are reported for all entries that follow.
recordedEndpoint: GI50

1) O=C1C2C=CC(C2)C(c2ccc(O)cc2)N1O (stereo not drawn)	> 100 µM (inactive)
2) CC1(C)S[C@H](c2ccccc2C(=O)O)N[C@@H]1CC(=O)O	> 100 µM (inactive)
3) O=C1OC(c2ccccc2)=N/C1=C\c1c(O)cc(O)cc1O	27.9 µM (inactive)
4) CC(=O)c1c(SCCN2CCOCC2)n(-c2ccccc2)c(=S)n(-c2ccccc2)c1=O	15.5 µM (inactive)
5) COC(=O)C1CCC(=O)N1CN(C(C)=O)c1ccccc1 (stereo not drawn)	> 100 µM (inactive)
6) O=C1Nc2ccccc2/C1=N/N=c1\cccc[nH]1	65.5 µM (inactive)
7) CCOC(=O)NC(Nc1ccc(OC(F)(F)F)cc1)(C(F)(F)F)C(F)(F)F	> 100 µM (inactive)
8) C=CO/N=[N+](\[O-])N(CC)CC	> 100 µM (inactive)
9) N=C(N)C1CN(CC=O)C(=O)NC1=O (stereo not drawn)	> 100 µM (inactive)
10) [N-]=[N+]=Nc1c(-c2ccccc2)c(=O)n(-c2ccccc2)c2ccccc12	56 µM (inactive)
11) COc1ccc(-c2cc(-c3ccccc3)n(C3OCC(OC(C)=O)C(OC(C)=O)C3OC(C)=O)c(=S)c2C#N)cc1 (stereo not drawn)	53 µM (inactive)
12) CCCCN1C(=O)c2c(-c3sccc3N)sc(-c3sccc3N)c2C1=O	19.3 µM (inactive)
13) CC(=O)OCCN1c2ccccc2Sc2cnccc21	> 10 µM (inactive)
14) Cc1ccc(OC(=O)N2C/C(=C\c3ccccc3)C(=O)/C(=C/c3ccccc3)C2)cc1	23.5 µM (inactive)
15) O=C(Nc1ccc([N+](=O)[O-])cc1)Nn1cnnc1	46.3 µM (inactive)
16) C[Si](C)(C)C#C[I+]c1ccccc1	33.2 µM (inactive)
17) CC(C#N)(NO)C(C)(C#N)NO (stereo not drawn)	> 100 µM (inactive)
18) O=C(O)CCC(NC(=O)c1ccc(Nc2nc3cc(C(F)(F)F)ccc3nc2-c2ccccc2)cc1)C(=O)O (stereo not drawn)	> 60.1 µM (inactive)
19) Nc1ccccc1CC(O)C(=O)O (stereo not drawn)	> 100 µM (inactive)
20) Cc1c(C2Cc3ccccc3N2C(=O)/C=C\C(=O)O)c2ccccc2n1C (stereo not drawn)	16.9 µM (inactive)
21) COC(=O)C12OC3CO[Si](C(C)C)(C(C)C)O[Si](C(C)C)(C(C)C)OC3C1Oc1nc(=O)ccn12 (stereo not drawn)	14.3 µM (inactive)
22) Oc1ccc(-c2nc3ccccc3s2)cc1	32.4 µM (inactive)
23) N#Cc1c(N)n(-c2nc3ccccc3s2)c(=O)c2cc([N+](=O)[O-])ccc12	21.3 µM (inactive)
